B1: TPR 5TU (parent)
chain: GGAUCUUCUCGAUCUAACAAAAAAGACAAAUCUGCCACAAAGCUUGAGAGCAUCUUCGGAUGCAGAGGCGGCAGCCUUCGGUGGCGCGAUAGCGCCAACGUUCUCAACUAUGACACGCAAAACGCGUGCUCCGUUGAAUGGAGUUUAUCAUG

- Variants of: B1
- assayText: polymerase ribozyme fitness, log enrichment relative to wild type (log ratio); higher = more active; in vitro selection for triplet polymerase activity
This sample holds only a part of the variants without activity.
outcomeMeasure: polymerase ribozyme fitness (log ratio)
# output: bare number, no unit

Given the entry C85U A122C , report its measured polymerase ribozyme fitness (log ratio). -1.06

Quick one: A52U C87U C103U -2.81

Quick one: U7A A17C A142C -3.31

Quick one: A23G A52C A98U -3.98

Quick one: G71U U144G -1.84
